target: human JAK2 (a.a. 828-1132) catalytic domain (Homo sapiens, UniProt O60674); construct: human JAK1 (a.a. 837-1142) and JAK2 (a.a. 828-1132); His tag (N); made in house; host or cells: insect cells (baculovirus); assay: In vitro JAK kinase assay (HTRF, phosphorylation of a biotinylated peptide), JAK2; type: biochemical; settings: 1 mM ATP
Sequence (O60674 828-1132): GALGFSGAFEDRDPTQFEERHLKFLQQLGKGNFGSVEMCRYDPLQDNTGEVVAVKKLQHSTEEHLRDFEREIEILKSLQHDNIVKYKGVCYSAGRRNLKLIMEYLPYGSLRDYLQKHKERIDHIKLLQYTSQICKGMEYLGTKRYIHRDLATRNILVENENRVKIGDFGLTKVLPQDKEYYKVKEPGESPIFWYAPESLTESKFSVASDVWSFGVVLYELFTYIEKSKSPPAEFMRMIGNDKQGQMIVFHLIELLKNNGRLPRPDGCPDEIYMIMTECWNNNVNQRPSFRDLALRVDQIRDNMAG
Measure Name: IC50

Example cases with answers are listed next.
* N#CC[C@]1(n2cc(-c3ncnc4[nH]ccc34)cn2)C[C@H](N2CCC(Nc3cc(CN[C@H]4C[C@H](O)C4)nc(C(F)(F)F)n3)CC2)C1 | 20 to 150 nM
* CCNCc1cc(NC2CCN([C@H]3C[C@](CC#N)(n4cc(-c5ncnc6[nH]ccc56)cn4)C3)CC2)nc(C(F)(F)F)c1 | 20 to 150 nM

// returns IC50 for `N#CC[C@]1(n2cc(-c3ncnc4[nH]ccc34)cn2)C[C@H](N2CCC(Nc3cc(CN4CC[C@@H](O)C4)cc(C(F)(F)F)n3)CC2)C1` with human JAK2 (a.a. 828-1132) catalytic domain (Homo sapiens, UniProt O60674); value = 20 to 150 nM

====

System: human JAK1 (a.a. 837-1142) catalytic domain
Assay: In vitro JAK kinase assay (HTRF, phosphorylation of a biotinylated peptide), JAK1
Format: biochemical
Conditions: ratio of JAK2 IC50 to JAK1 IC50, 1 mM ATP
Procedure: Compounds herein were tested for inhibitory activity of JAK targets according to the following in vitro assay described in Park et al., Analytical Biochemistry 1999, 269, 94-104. […] The phosphorylated peptide was detected by homogenous time resolved fluorescence (HTRF). […] Binding to the Europium labeled antibody took place for 40 minutes and HTRF signal was measured on a Fusion plate reader (Perkin Elmer, Boston, Mass.). […]
Measure Name: JAK2/JAK1

- COCCNCc1cc(OC2CCN([C@H]3C[C@](CC#N)(n4cc(-c5ncnc6[nH]ccc56)cn4)C3)CC2)nc(C(F)(F)F)c1 [Example 3]: >10
- N#CC[C@]1(n2cc(-c3ncnc4[nH]ccc34)cn2)C[C@H](N2CCC(Oc3cc(C4(N)COC4)cc(C(F)(F)F)n3)CC2)C1 [Example 50]: >10

API: the following record is the query input.
Please fill in: JAK2/JAK1 reported for CN(c1cc(CO)cc(C(F)(F)F)n1)C1CCN([C@H]2C[C@](CC#N)(n3cc(-c4ncnc5[nH]ccc45)cn3)C2)CC1 [Example 47] = >10

====

Tested on: human JAK1 (a.a. 837-1142) catalytic domain
Assay: In vitro JAK kinase assay (HTRF, phosphorylation of a biotinylated peptide), JAK1
Assay type: biochemical
Settings: ratio of JAK2 IC50 to JAK1 IC50, 1 mM ATP
Method: Compounds herein were tested for inhibitory activity of JAK targets according to the following in vitro assay described in Park et al., Analytical Biochemistry 1999, 269, 94-104. […] The phosphorylated peptide was detected by homogenous time resolved fluorescence (HTRF). […] Binding to the Europium labeled antibody took place for 40 minutes and HTRF signal was measured on a Fusion plate reader (Perkin Elmer, Boston, Mass.). […]
Measure Name: JAK2/JAK1

Example cases with answers are listed next.
* N#CC[C@]1(n2cc(-c3ncnc4[nH]ccc34)cn2)C[C@H](N2CCC(Oc3cc(CN(CCO)CCO)cc(C(F)(F)F)n3)CC2)C1 | >10
* N#CC[C@]1(n2cc(-c3ncnc4[nH]ccc34)cn2)C[C@H](N2CCC(Oc3cc(Cn4cccn4)cc(C(F)(F)F)n3)CC2)C1 | >10

API: the following record is the query input.
Please fill in: JAK2/JAK1 reported for `N#CC[C@]1(n2cc(-c3ncnc4[nH]ccc34)cn2)C[C@H](N2CCC(Oc3cc(C4(O)COC4)cc(C(F)(F)F)n3)CC2)C1` = >10

Every entry's value here was drawn from patent US9193733B2.
